System: C. auris Ca 32
assayProtocol: MIC, CLSI M27 broth microdilution
Type: cell-based, Candida auris
assayConditions: Candidozyma auris, CA32; C. auris Ca 32; geometric mean; antifungal drugs; read-out: MIC GM
parameterMeasured: MIC

# count of solved cases: 2
C[C@@H]1[C@H](O)[C@@H](C)/C=C/C=C/C=C/C=C/C=C/C=C/C=C/[C@H](O[C@@H]2O[C@H](C)[C@@H](O)[C@H](N)[C@@H]2O)C[C@@H]2O[C@](O)(C[C@@H](O)C[C@@H](O)[C@H](O)CC[C@@H](O)C[C@@H](O)CC(=O)O[C@H]1C)C[C@H](O)[C@H]2C(=O)O [AMB, amphotericin B]; 0.19 µg/mL
OC(Cn1cncn1)(Cn1cncn1)c1ccc(F)cc1F [FLC, fluconazole]; 11.3 µg/mL

Now turn to the next compound.
## Input Indicate the recorded MIC value for this compound: CCC(C)n1ncn(-c2ccc(N3CCN(c4ccc(OCC5COC(Cn6cncn6)(c6ccc(Cl)cc6Cl)O5)cc4)CC3)cc2)c1=O (stereo not drawn) [ITC, itraconazole]
## Output 0.35 µg/mL
